Entry source: paper PMC12557437

# target-system: Hs_CK1ε (Homo sapiens, UniProt P49674)
# Sequence (P49674 whole entry): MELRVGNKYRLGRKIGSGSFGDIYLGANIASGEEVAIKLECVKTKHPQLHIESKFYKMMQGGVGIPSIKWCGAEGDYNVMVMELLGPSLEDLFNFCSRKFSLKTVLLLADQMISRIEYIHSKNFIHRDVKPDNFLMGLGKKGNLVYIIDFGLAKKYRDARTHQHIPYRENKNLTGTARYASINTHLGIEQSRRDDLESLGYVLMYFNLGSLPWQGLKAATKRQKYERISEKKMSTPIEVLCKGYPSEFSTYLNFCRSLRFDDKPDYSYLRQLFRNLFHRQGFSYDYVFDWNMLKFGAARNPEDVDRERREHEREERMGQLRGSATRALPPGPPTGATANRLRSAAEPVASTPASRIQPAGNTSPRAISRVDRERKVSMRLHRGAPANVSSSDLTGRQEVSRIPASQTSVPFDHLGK
# procedure-text: primary screening, short panel of mammalian kinases
# Assay type: biochemical
# condition-parameters: compound 1 μM; ATP 10 µM; means, n = 2; read-out: Residual kinase activity Hs_CK1ε
experimental-endpoint: remaining activity at 1 µM

[
  {
    "compound": "COC(=O)c1ccc(-c2cc(Cl)cc(Nc3ncc4cccc(OCc5cn(-c6ccc(C)cc6[N+](=O)[O-])nn5)c4n3)c2)cc1 [Compound 9b]",
    "experimental-endpoint": "remaining activity at 1 µM",
    "reported-result": "≥ 100%"
  },
  {
    "compound": "Cc1ccc(-n2cc(COc3cccc4cnc(Nc5cc(Cl)cc(-c6ccc(C(=O)O)cc6)c5)nc34)nn2)c([N+](=O)[O-])c1 [Compound 10b]",
    "experimental-endpoint": "remaining activity at 1 µM",
    "reported-result": "≥ 100%"
  },
  {
    "compound": "Cc1ccc(-n2cc(COc3cccc4cnc(Nc5cccc(-c6ccc(C(=O)O)cc6)c5)nc34)nn2)c([N+](=O)[O-])c1 [Compound 10a]",
    "experimental-endpoint": "remaining activity at 1 µM",
    "reported-result": "93%"
  }
]

Kindly give each listed record's remaining activity at 1 µM.
1. Cc1ccc(-n2cc(COc3cccc4cnc(Nc5cc(Cl)cc(-c6cccc(C(=O)O)c6)c5)nc34)nn2)c([N+](=O)[O-])c1 [Compound 13b]
2. COC(=O)c1cccc(-c2cc(Cl)cc(Nc3ncc4cccc(OCc5cn(-c6ccc(C)cc6[N+](=O)[O-])nn5)c4n3)c2)c1 [Compound 12b]
3. COC(=O)c1ccc(-c2cccc(Nc3ncc4cccc(OCc5cn(-c6ccc(C)cc6[N+](=O)[O-])nn5)c4n3)c2)cc1 [Compound 9a]
4. Cc1ccc(-n2cc(COc3cccc4cnc(Nc5cccc(-c6cccc(C(=O)O)c6)c5)nc34)nn2)c([N+](=O)[O-])c1 [Compound 13a]

1: ≥ 100%; 2: ≥ 100%; 3: 78%; 4: ≥ 100%

====

# target-system: Hs_CDK5/p25 (Homo sapiens)
# Sequence (Q00535 whole entry): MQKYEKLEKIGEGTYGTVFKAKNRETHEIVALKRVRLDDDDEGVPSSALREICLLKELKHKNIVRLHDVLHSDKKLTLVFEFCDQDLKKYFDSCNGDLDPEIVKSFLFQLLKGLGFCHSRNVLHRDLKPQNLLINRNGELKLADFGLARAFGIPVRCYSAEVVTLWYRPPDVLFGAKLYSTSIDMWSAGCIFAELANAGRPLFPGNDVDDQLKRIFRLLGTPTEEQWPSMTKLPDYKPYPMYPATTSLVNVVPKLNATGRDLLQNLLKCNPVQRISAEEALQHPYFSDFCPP
# Sequence (Q15078 99-307 partner limits assumed): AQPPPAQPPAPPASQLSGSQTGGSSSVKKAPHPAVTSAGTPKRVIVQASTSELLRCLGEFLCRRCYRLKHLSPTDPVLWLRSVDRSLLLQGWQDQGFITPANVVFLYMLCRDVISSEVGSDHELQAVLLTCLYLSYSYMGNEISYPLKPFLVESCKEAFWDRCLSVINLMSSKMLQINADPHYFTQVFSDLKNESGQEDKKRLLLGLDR
# procedure-text: primary screening, short panel of mammalian kinases
# Format: biochemical
# condition-parameters: compound 10 μM; ATP 10 µM; means, n = 2; read-out: Residual kinase activity Hs_CDK5/p25
For each entry below, report its remaining activity at 10 µM value.
Numbers only, in %.

Some solved cases for reference:
[
  {
    "molecule": "Cc1ccc(-n2cc(COc3cccc4cnc(Nc5cccc(-c6ccc(C(=O)O)cc6)c5)nc34)nn2)c([N+](=O)[O-])c1 [Compound 10a]",
    "reported-result": 70
  },
  {
    "molecule": "Cc1ccc(-n2cc(COc3cccc4cnc(Nc5cc(Cl)cc(-c6ccc(C(=O)O)cc6)c5)nc34)nn2)c([N+](=O)[O-])c1 [Compound 10b]",
    "reported-result": 43
  },
  {
    "molecule": "COC(=O)c1cccc(-c2cc(Cl)cc(Nc3ncc4cccc(OCc5cn(-c6ccc(C)cc6[N+](=O)[O-])nn5)c4n3)c2)c1 [Compound 12b]",
    "reported-result": 92
  },
  {
    "molecule": "COC(=O)c1ccc(-c2cccc(Nc3ncc4cccc(OCc5cn(-c6ccc(C)cc6[N+](=O)[O-])nn5)c4n3)c2)cc1",
    "reported-result": 84
  },
  {
    "molecule": "Cc1ccc(-n2cc(COc3cccc4cnc(Nc5cc(Cl)cc(-c6cccc(C(=O)O)c6)c5)nc34)nn2)c([N+](=O)[O-])c1 [Compound 13b]",
    "reported-result": 37
  }
]

Fill in reported remaining activity at 10 µM for this entry: Cc1ccc(-n2cc(COc3cccc4cnc(Nc5cccc(-c6cccc(C(=O)O)c6)c5)nc34)nn2)c([N+](=O)[O-])c1 [Compound 13a] 9

====

# target-system: Mm_CLK1 (Mus musculus)
# Sequence (P22518 whole entry): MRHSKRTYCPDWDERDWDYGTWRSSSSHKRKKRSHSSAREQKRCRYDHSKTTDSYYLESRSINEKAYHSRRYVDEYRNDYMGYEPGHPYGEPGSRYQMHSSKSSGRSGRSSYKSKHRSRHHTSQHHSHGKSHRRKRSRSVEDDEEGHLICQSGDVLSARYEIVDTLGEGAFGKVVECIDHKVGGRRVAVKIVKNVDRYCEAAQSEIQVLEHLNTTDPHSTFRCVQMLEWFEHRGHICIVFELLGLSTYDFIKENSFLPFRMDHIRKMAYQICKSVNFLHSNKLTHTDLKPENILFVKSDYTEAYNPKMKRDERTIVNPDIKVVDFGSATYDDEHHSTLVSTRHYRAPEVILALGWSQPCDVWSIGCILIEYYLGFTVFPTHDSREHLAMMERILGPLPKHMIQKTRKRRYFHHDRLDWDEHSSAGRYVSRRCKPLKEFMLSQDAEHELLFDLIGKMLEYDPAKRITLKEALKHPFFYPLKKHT
# procedure-text: primary screening, short panel of mammalian kinases
# Assay type: biochemical
# condition-parameters: compound 1 μM; ATP 10 µM; means, n = 2; read-out: Residual kinase activity Mm_CLK1
experimental-endpoint: remaining activity at 1 µM (%)
One number for each entry, in %.

Some solved cases for reference:
[
  {
    "molecule": "COC(=O)c1cccc(-c2cc(Cl)cc(Nc3ncc4cccc(OCc5cn(-c6ccc(C)cc6[N+](=O)[O-])nn5)c4n3)c2)c1 [Compound 12b]",
    "remaining activity at 1 µM, %": 54
  },
  {
    "molecule": "Cc1ccc(-n2cc(COc3cccc4cnc(Nc5cccc(-c6ccc(C(=O)O)cc6)c5)nc34)nn2)c([N+](=O)[O-])c1 [Compound 10a]",
    "remaining activity at 1 µM, %": 15
  }
]

From here, focus on the item given below.
Fill in reported remaining activity at 1 µM for this entry: Cc1ccc(-n2cc(COc3cccc4cnc(Nc5cc(Cl)cc(-c6cccc(C(=O)O)c6)c5)nc34)nn2)c([N+](=O)[O-])c1 [Compound 13b] 20

====

For each entry below, report its IC50 value.
# target-system: Mm_CLK4 (Mus musculus)
# Sequence (O35493 whole entry): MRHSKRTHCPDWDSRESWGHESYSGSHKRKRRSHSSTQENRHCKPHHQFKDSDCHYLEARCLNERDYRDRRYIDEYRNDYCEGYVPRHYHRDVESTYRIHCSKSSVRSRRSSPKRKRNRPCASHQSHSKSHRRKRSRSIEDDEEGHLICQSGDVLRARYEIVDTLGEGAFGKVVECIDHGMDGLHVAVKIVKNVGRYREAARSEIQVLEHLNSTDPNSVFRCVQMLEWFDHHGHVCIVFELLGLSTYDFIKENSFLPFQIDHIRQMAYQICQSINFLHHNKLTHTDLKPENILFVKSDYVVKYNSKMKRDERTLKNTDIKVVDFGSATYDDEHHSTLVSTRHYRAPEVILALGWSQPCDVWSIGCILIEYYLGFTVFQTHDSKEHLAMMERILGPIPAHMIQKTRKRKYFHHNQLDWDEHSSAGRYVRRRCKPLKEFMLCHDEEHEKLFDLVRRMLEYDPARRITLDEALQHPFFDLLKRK
# procedure-text: radiometric γ33P-ATP kinase assay (Eurofins)
# Assay type: biochemical
# condition-parameters: 15 µM ATP; dose-response, points in duplicate

Some solved cases for reference:
[
  {
    "compound": "Cc1ccc(-n2cc(COc3cccc4cnc(Nc5cccc(-c6ccc(C(=O)O)cc6)c5)nc34)nn2)c([N+](=O)[O-])c1 [Compound 10a]",
    "target-system": "Mm_CLK4 (Mus musculus)",
    "IC50": "762 nM"
  },
  {
    "compound": "Cc1ccc(-n2cc(COc3cccc4cnc(Nc5cccc(-c6cccc(C(=O)O)c6)c5)nc34)nn2)c([N+](=O)[O-])c1 [Compound 13a]",
    "target-system": "Mm_CLK4 (Mus musculus)",
    "IC50": "428 nM"
  },
  {
    "compound": "Cc1ccc(-n2cc(COc3cccc4cnc(Nc5cc(Cl)cc(-c6cccc(C(=O)O)c6)c5)nc34)nn2)c([N+](=O)[O-])c1 [Compound 13b]",
    "target-system": "Mm_CLK4 (Mus musculus)",
    "IC50": "62 nM"
  }
]

From here, focus on the item given below.
Fill in reported IC50 for this entry: Cc1ccc(-n2cc(COc3cccc4cnc(Nc5cc(Cl)cc(-c6ccc(C(=O)O)cc6)c5)nc34)nn2)c([N+](=O)[O-])c1 [Compound 10b] 145 nM

====

# target-system: Hs_CK1ε (Homo sapiens, UniProt P49674)
# procedure-text: primary screening, short panel of mammalian kinases
# Assay type: biochemical
# condition-parameters: compound 10 μM; ATP 10 µM; means, n = 2; read-out: Residual kinase activity Hs_CK1ε
experimental-endpoint: remaining activity at 10 µM (%)
Give bare numbers, in %.

[
  {
    "compound": "COC(=O)c1ccc(-c2cccc(Nc3ncc4cccc(OCc5cn(-c6ccc(C)cc6[N+](=O)[O-])nn5)c4n3)c2)cc1",
    "remaining activity at 10 µM [%]": 95
  }
]

From here, focus on the item given below.
Fill in reported remaining activity at 10 µM for this entry: Cc1ccc(-n2cc(COc3cccc4cnc(Nc5cc(Cl)cc(-c6ccc(C(=O)O)cc6)c5)nc34)nn2)c([N+](=O)[O-])c1 [Compound 10b] 92

====

# target-system: Hs_GSK3β (Homo sapiens, UniProt P49841)
# Sequence (P49841 whole entry): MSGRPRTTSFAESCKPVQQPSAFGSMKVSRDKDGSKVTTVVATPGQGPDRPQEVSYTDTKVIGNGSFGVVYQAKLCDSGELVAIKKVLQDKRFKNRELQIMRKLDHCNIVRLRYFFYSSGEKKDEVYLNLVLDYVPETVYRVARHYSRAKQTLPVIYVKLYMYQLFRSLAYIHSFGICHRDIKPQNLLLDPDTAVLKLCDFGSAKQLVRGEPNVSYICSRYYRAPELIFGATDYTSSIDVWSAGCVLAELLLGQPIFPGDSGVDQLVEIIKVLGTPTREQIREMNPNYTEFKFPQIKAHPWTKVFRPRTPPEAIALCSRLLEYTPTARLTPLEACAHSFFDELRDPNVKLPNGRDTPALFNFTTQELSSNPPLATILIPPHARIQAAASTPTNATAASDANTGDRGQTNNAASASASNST
# procedure-text: primary screening, short panel of mammalian kinases
# Assay type: biochemical
# condition-parameters: compound 10 μM; ATP 10 µM; means, n = 2; read-out: Residual kinase activity Hs_GSK3β
For each entry below, report its remaining activity at 10 µM value.
Numbers only, in %.

[
  {
    "compound": "Cc1ccc(-n2cc(COc3cccc4cnc(Nc5cccc(-c6ccc(C(=O)O)cc6)c5)nc34)nn2)c([N+](=O)[O-])c1 [Compound 10a]",
    "remaining activity at 10 µM (%)": 32
  },
  {
    "compound": "COC(=O)c1ccc(-c2cccc(Nc3ncc4cccc(OCc5cn(-c6ccc(C)cc6[N+](=O)[O-])nn5)c4n3)c2)cc1",
    "remaining activity at 10 µM (%)": 53
  },
  {
    "compound": "Cc1ccc(-n2cc(COc3cccc4cnc(Nc5cc(Cl)cc(-c6ccc(C(=O)O)cc6)c5)nc34)nn2)c([N+](=O)[O-])c1 [Compound 10b]",
    "remaining activity at 10 µM (%)": 56
  },
  {
    "compound": "COC(=O)c1ccc(-c2cc(Cl)cc(Nc3ncc4cccc(OCc5cn(-c6ccc(C)cc6[N+](=O)[O-])nn5)c4n3)c2)cc1",
    "remaining activity at 10 µM (%)": 86
  },
  {
    "compound": "Cc1ccc(-n2cc(COc3cccc4cnc(Nc5cc(Cl)cc(-c6cccc(C(=O)O)c6)c5)nc34)nn2)c([N+](=O)[O-])c1 [Compound 13b]",
    "remaining activity at 10 µM (%)": 43
  },
  {
    "compound": "Cc1ccc(-n2cc(COc3cccc4cnc(Nc5cccc(-c6cccc(C(=O)O)c6)c5)nc34)nn2)c([N+](=O)[O-])c1 [Compound 13a]",
    "remaining activity at 10 µM (%)": 26
  }
]

From here, focus on the item given below.
Fill in reported remaining activity at 10 µM for this entry: COC(=O)c1cccc(-c2cc(Cl)cc(Nc3ncc4cccc(OCc5cn(-c6ccc(C)cc6[N+](=O)[O-])nn5)c4n3)c2)c1 [Compound 12b] 62
